System: SF-539 CNS
assay.summary: NCI-60 one-dose screen, 48 h (100 = growth as untreated, 0 = no growth, -100 = all killed)
test.conditions: 10 µM unless noted
About 83,000 compounds went through this panel and 20% of them were active in at least one assay; those are over-represented in the sample as a whole. Calls of active or inactive are those of the source. How the source made its calls: active means growth percent below 10; inactive means the rest.
Can you tell me growth for the items I'm about to list?

molecule	growth
COc1ccc(/C=C2\COc3ccc(O)c(O)c3C2=O)c(OC)c1	49.5% (inactive)
O=C(NCCOCCOCCOCCNC(=O)c1cc2c(o1)C(=O)c1ccccc1C2=O)NC12CC3CC(CC(C3)C1)C2	-63.5% (active)
NC(=O)c1c(NC(=O)c2ccc(C(F)(F)F)cc2Cl)sc2c1CCC(=O)C2	-84.8% (active)
CC(=O)c1sc(-c2ccccc2)cc1N	97.1% (inactive)
Cc1ccc(S(=O)(=O)Nc2sccc2-c2nc(-c3ccccc3)no2)cc1	95% (inactive)
NC(=O)c1c(NC(=O)c2ccccn2)sc2c1CCC(=O)C2	1.9% (active)
O=C1CSC(c2ccccc2)N1c1ccccc1 (stereo unspecified)	108% (inactive)
CC(C)OC(=O)NNC(=O)c1ccncc1	97.2% (inactive)
CN1C[C@@H](c2ccc(Cl)cc2)[C@]2(NC(=S)N(c3ccc(F)c(Cl)c3)C2=O)[C@@]12C(=O)NC1C=CC(Cl)=C[C@H]12 (stereo partly specified)	73.5% (inactive)
CS(=O)(=O)c1ccc(-c2[nH]c3ccc(F)cc3c2/C=N/NC(N)=S)cc1	-21.2% (active)

Record growth for all entries; do not skip any.
1. Fc1ccc(Nc2nc3nonc3nc2Nc2ccc(F)cc2)cc1
2. O=C1CC(c2ccc3c(c2)OCO3)Nc2cc3c(cc21)OCO3 (stereo unspecified)
3. CCN(CCO)CC(=O)c1cc(Cl)cc(Cl)c1Cl
4. N=C(N)c1ccc(-c2ccc(-c3ccc(Cl)c(Cl)c3)o2)nc1

1: -7.76% (active); 2: 6.5% (active); 3: 104% (inactive); 4: 38.8% (inactive)

* * *

Tested on: CCRF-CEM leukemia
assay.summary: NCI-60 one-dose screen, 48 h (100 = growth as untreated, 0 = no growth, -100 = all killed)
test.conditions: 10 µM unless noted
Compounds without any hit were thinned out: in the full panel of roughly 83,000, 20% have a hit.
measured.parameter: growth (%)
Numbers only, in %.

As a guide, the following entries are already answered.
molecule	system.name	unit.annotation	growth
O=C1Nc2ccccc2/C1=N/N=C/c1ccsc1	CCRF-CEM leukemia	%	101
O=C(NCc1cccnc1)c1cc(-c2csc3c(=O)cc(N4CCOCC4)oc23)cc2c1OCCO2	CCRF-CEM leukemia	%	39.6
CN(C)CCN1C(=O)c2cccc3c(-c4ccc(-c5nc6c7ccccc7c7ccccc7c6[nH]5)cc4)ccc(c23)C1=O	CCRF-CEM leukemia	%	55.4
NS(=O)(=O)Oc1ccc(-c2sc3cc(O)ccc3c2C(=O)c2ccc(OCCN3CCCCC3)cc2)cc1	CCRF-CEM leukemia	%	25.9
Cn1nnnc1-c1ccc(N)cc1	CCRF-CEM leukemia	%	100

Record growth for all entries; do not skip any.
1. O=C1C(Cl)C(c2ccccc2Cl)N1n1cnnc1 (stereo not given)
2. C[C@H]1[C@H](C)CC[C@]2(C(=O)N3CCN(C)CC3)CC[C@]3(C)C(=CC[C@@H]4[C@@]5(C)C/C(=C/c6cccnc6)C(=O)C(C)(C)[C@@H]5CC[C@]43C)[C@H]12
3. c1ccc2c(c1)nc(-n1ccnc1)c1nc3ccccc3n12
4. CN1CCN(C2=C(Cl)C(=O)c3ccccc3C2=O)CC1
5. Nc1c(-c2nc3ccccc3c(=O)[nH]2)nnn1-c1ccc(Cl)cc1

[98.6, -51.7, 78, 75.5, 90.2]

* * *

Test system: UO-31 renal
assay.summary: NCI-60 one-dose screen, 48 h (100 = growth as untreated, 0 = no growth, -100 = all killed)
test.conditions: 10 µM unless noted
Compounds without any hit were thinned out: in the full panel of roughly 83,000, 20% have a hit.
Can you tell me growth for the items I'm about to list?
Give bare numbers, in %.

compound	system.name	growth, %
CNC1(C#N)CCN(Cc2ccccc2)CC1	UO-31 renal	80.9
COc1ccc(NC(=O)C(=O)c2c[nH]c3ccc(F)cc23)cc1	UO-31 renal	96.4
Cc1cc(NS(=O)(=O)c2ccccc2)c(OS(=O)(=O)c2ccccc2)cc1C	UO-31 renal	73.6
O=C(/C=C/C12c3ccccc3C(c3ccccc31)C1C(=O)N(c3ccccc3)C(=O)C12)c1ccccc1 (stereo not given)	UO-31 renal	-77.5

Note: attention shifts to another entry.
Let me know recorded growth for COc1ccc(OC)c(Nc2nc3nonc3nc2Nc2cc(OC)ccc2OC)c1 , thanks. 10.8

* * *

Tested on: A549/ATCC NSCLC
assay.summary: NCI-60 one-dose screen, 48 h (100 = growth as untreated, 0 = no growth, -100 = all killed)
test.conditions: 10 µM unless noted
Compounds without any hit were thinned out: in the full panel of roughly 83,000, 20% have a hit.
measured.parameter: growth (%)
Give bare numbers, in %.

As a guide, the following entries are already answered.
compound	reported.result
OC(COc1cccc2ccccc12)CN1CCN(c2ccccc2)CC1 (configuration not stated)	102
O=C(/C=C/c1ccccc1)c1ccc2ccccc2c1	96.3
CCn1nc(C#Cc2c(C)ccc3c(Nc4ccc(Cl)cc4)nccc23)c2c(N)ncnc21	16.8
CCOc1cc(C2C(Cl)C(=O)N2n2cnnc2)ccc1O (configuration not stated)	90.5

Record growth for all entries; do not skip any.
1. C[C@@H]1C(=O)N(C[C@H](Cc2ccccc2)NC(=O)OCc2ccccc2)[C@]1(Cc1ccccc1)C(=O)OC(C)(C)C
2. Clc1ccc2[nH]c3c(NCCCN4CCOCC4)ncnc3c2c1
3. Cc1nc(Nc2ccc(NC(=S)Nc3ccccc3)cc2)c2ccccc2n1
4. COc1cccc(-c2cnco2)c1OCc1c(C)c(COc2c(OC)cccc2-c2cnco2)c(C)c(COc2c(OC)cccc2-c2cnco2)c1C
5. CC(=O)c1cc2c(o1)C(=O)c1ccccc1C2=O
6. C=C1C(=O)O[C@H]2[C@H]1CC/C(COC(=O)/C=C\C(=O)NCc1ccc(Cn3c(=O)sn(-c4ccc(C#N)cc4)c3=O)cc1)=C\CC[C@@]1(C)O[C@@H]21
7. O=C(Oc1ccc[nH]c1=O)c1cc([N+](=O)[O-])cc([N+](=O)[O-])c1
8. CCCCCCN(CCCCCC)CC(O)c1cccc2ccc(Cl)cc12 (configuration not stated)

1: 47.2; 2: 80.1; 3: 95.9; 4: 51.8; 5: -44.4; 6: -21.4; 7: 77.3; 8: 67.2

Record growth for all entries; do not skip any.
1. O=C(NC1CCOCC1)c1ccc2c(c1)CN(c1ncc(Cc3cccc(-n4cccn4)c3)s1)CC2
2. OC(c1cccc(OCc2ccccc2)c1)c1nnc(-c2ccccc2)o1 (configuration not stated)
3. CCc1cc(Cc2cc(CC)cc(C(C)(C)C)c2O)c(O)c(C(C)(C)C)c1
4. CN1CCN(C(=O)[C@]23CCC(C)(C)C[C@@H]2C2=CC[C@@H]4[C@@]5(C)Cc6c([nH]c7ccccc67)C(C)(C)[C@@H]5CC[C@@]4(C)[C@]2(C)CC3)CC1
5. COc1ccc(OC)c(Nc2nc3nonc3nc2Nc2cccc(Br)c2)c1
6. CNC(=O)NCC1OC(n2cnc3c(NC(=O)Nc4ccccc4)ncnc32)C2OC(C)(C)OC12 (configuration not stated)
7. Clc1ccc(-c2nnc(-c3ccco3)o2)cc1
8. COc1ccc(NC(=O)C(=O)c2c[nH]c3ccc(F)cc23)cc1

[76, 95.1, 23.8, 69.4, 9.15, 103, 96.8, 78.7]

Record growth for all entries; do not skip any.
1. COc1c(C)cnc(CSc2nc(-c3ccc(C)cc3)cn2-c2ccc(Cl)cc2)c1C
2. C[N+](C)(C)CCOC(OCC[N+](C)(C)C)(c1ccccc1)c1ccccc1
3. COc1cc2c(O)n(CCCn3ccnc3)c3c4cnc5cccc(c(=O)c3c2cc1OC)c54
4. Cc1ccc(S(=O)(=O)NN/C(N)=N\S(=O)(=O)c2cc(C)c(Cl)cc2SCc2ccccc2)cc1
5. Nc1c(-c2nc3ccccc3c(=O)[nH]2)nnn1-c1ccc(Cl)cc1
6. COc1ccc(-c2nnc(-c3ccc4c(c3)nc(-c3ccccc3)n4C3CCCCC3)o2)cc1

1: 88.6; 2: 100; 3: 35.6; 4: 56.7; 5: 40.6; 6: 50.3

Record growth for all entries; do not skip any.
1. CCc1c(C(=O)N[C@@H]2c3cc(Cl)ccc3CC[C@@H]2O)[nH]c(C)c1C(C)=O
2. C=CCN1C(=O)[C@]2(SC1=S)[C@H](c1cccc(Cl)c1)CN(C)[C@]21C(=O)NC2C=CC(Cl)=C[C@H]21 (some centres not stated)
3. O=C1C2=C(CCN(Cc3ccccc3)C2)N2CCN=C2N1Cc1ccc(C(F)(F)F)cc1
4. C=C(C)[C@@H]1CC[C@]2(C(=O)NCC(=O)O)CC[C@]3(C)[C@H](CC[C@@H]4[C@@]5(C)Cc6c([nH]c7ccccc67)C(C)(C)[C@@H]5CC[C@]43C)[C@@H]12
5. O=C(CCc1nc(-c2cccc(Cl)c2)no1)Nc1ccccn1
6. Cc1cc(C(c2ccccc2)c2ccccc2)ccc1NS(=O)(=O)c1ccccc1

62
41.9
27.6
67.1
111
87.9

Values were extracted from PubChem BioAssay (NCI).
